Provide the recorded GI50 for the entries that follow.
Tested on: SF-295
PROTOCOL: NCI tumour cell line growth inhibition, 48 h
Calls of active or inactive are those of the source. Cut-off read from the data, not from the text of the source: active = GI50 up to about 1.1 µM and inactive = higher.

MOLECULE	GI50
NCCCN1CCN(c2ccccc2)CC1	10.2 µM (inactive)
CCOC(=O)c1nc2cc(F)cc(F)c2[nH]c1=O	> 100 µM (inactive)
CCOC(=O)C1=C(C)NC(=O)NC1c1coc2cc(C)cc(C)c2c1=O (stereo not given)	47.6 µM (inactive)

Record GI50 for all entries; do not skip any.
1. COc1cccc2c1[C@H](OC)[C@]13O[C@@]1(C2=O)[C@H](O)[C@H](C)[C@@](O)(C(=O)[C@@H]1O[C@H]1C)[C@@H]3O
2. CC1=C(/C=C/C(C)=C/C=C/C(C)=C/C(=O)OCC2OC(n3cc(F)c(=O)[nH]c3=O)CC2OC(=O)/C=C(C)/C=C/C=C(C)/C=C/C2=C(C)CCCC2(C)C)C(C)(C)CCC1 (stereo not given)
3. COc1cc2c(c(OC)c1)C(=O)C(=O)C(CC1(C)OCCCO1)=C2
4. O=[N+]([O-])c1ccc(/C=N/n2c(CO)nc3ccccc32)o1

*A*
["0.218 µM (active)", "0.301 µM (active)", "13.9 µM (inactive)", "11.7 µM (inactive)"]

----------
Tested on: MOLT-4
PROTOCOL: NCI tumour cell line growth inhibition, 48 h
Activity calls are given as the source filed them. No stated cut-off is given here; in the data, active = GI50 up to about 1.1 µM and inactive = higher.
The reply should name one outcome from active, inactive

Examples from the recorded data:
COMPOUND	CATEGORY
C#C[C@]1(O)CC[C@H]2[C@@H]3CCC4=C/C(=N/OC(=O)c5cccc6c(=O)c7ccccc7[nH]c56)CC[C@@H]4[C@H]3CC[C@@]21C	inactive
CCOC(=O)C1C(c2ccc(O)c(OC)c2)c2c(n[nH]c2O)CC1(C)O (stereo not drawn)	inactive

Could you now consider this next compound?
*Q* Could you please tell me the result logged for CC(=O)O[C@H]1C(=O)[C@@]2(C)[C@H]([C@H](OC(=O)C3CCCCC3)[C@]3(O)C[C@H](OC(=O)[C@H](O)[C@@H](NC(=O)C4CCCCC4)C4CCCCC4)C(C)=C1C3(C)C)[C@]1(OC(C)=O)CO[C@@H]1C[C@@H]2O in this assay?
*A* active

----------
Test system: SK-OV-3
PROTOCOL: NCI tumour cell line growth inhibition, 48 h
The source made the active and inactive calls. No stated cut-off is given here; in the data, active = GI50 up to about 1.1 µM and inactive = higher.
OBSERVABLE: GI50

Record GI50 for all entries; do not skip any.
1. OCC(O)C(OC1OC(CO)C(O)C(O)C1O)c1nn(-c2ccccc2)c2nc3cc(Cl)c(Cl)cc3cc12 (centres undefined)
2. CC(C)CCC[C@@H](C)[C@H]1CC[C@H]2[C@@H]3CC=C4C[C@@H](OC(=O)c5cccc6c(=O)c7ccccc7[nH]c56)CC[C@]4(C)[C@H]3CC[C@]12C
3. CSc1cc(Cl)c(C)cc1S(=O)(=O)NC(=O)NNc1ccc(F)cc1
4. CC(=O)OCc1ccc2oc(=O)c(C(=O)Oc3cccc(Cl)c3)cc2c1

*A*
1: > 100 µM (inactive); 2: > 75 µM (inactive); 3: > 100 µM (inactive); 4: > 100 µM (inactive)

----------
Tested on: SF-268
PROTOCOL: NCI tumour cell line growth inhibition, 48 h
Activity calls are given as the source filed them. Rule as the data show it: active = GI50 up to about 1.1 µM and inactive = higher.
The reply should name one outcome from active, inactive

Examples from the recorded data:
> print(dat)
                                   molecule  category
1  O=C1C(c2c(O)[nH]c3ccc(I)cc23)=Nc2ccccc21  inactive
2  CCO/C=N\C1=C(C#N)SC2=N/C(=C\c3ccc(OC)cc3)C(=O)N21  inactive
3  CC(C)(C)OC(=O)NC(Cc1ccc(O)cn1)C(=O)O (stereo unspecified)  inactive
4  CCN1C(=O)/C(=C/Nc2ccccc2)S/C1=N/Nc1nc(-c2ccc(O)c(O)c2)cs1  inactive
5             O=C(/C=C/C(=O)N1CCCC1)N1CCCC1  inactive
6  O=CNC(Cc1c[nH]cn1)C(=O)O (stereo unspecified)  inactive
7  N=c1c2c(=S)n(-c3ccccc3)c(=S)n(-c3ccccc3)c2nc(SCCN2CCCC2)n1-c1ccccc1  inactive
8  O=C1OC(OC/C(Br)=C(\Br)COC2OC(=O)C(Cl)=C2Cl)C(Cl)=C1Cl (stereo unspecified)  inactive

*Q* Could you please tell me the result logged for Cc1cc(C)c(S(=O)(=O)N2CCCN(S(=O)(=O)c3c(C)cc(C)cc3C)OCCCO2)c(C)c1 in this assay?
*A* inactive

*Q* Could you please tell me the result logged for CS[C@]12C(=O)C[C@@]3(C)[C@@H](CC[C@]3(O)C(=O)CO)[C@@H]1CCC1=CC(=O)CC[C@@]12C in this assay?
*A* inactive

*Q* Could you please tell me the result logged for FC(F)(F)c1ccc2nc(Sc3ccc4ccccc4c3)cnc2c1 in this assay?
*A* inactive

*Q* Could you please tell me the result logged for O=C(O)c1ccccc1.[Ag] in this assay?
*A* inactive

*Q* Could you please tell me the result logged for O=C1/C(=C/c2cccc([N+](=O)[O-])c2)Cc2ccccc21 in this assay?
*A* inactive

*Q* Could you please tell me the result logged for Nc1ncnc2c1ncn2C1OC(CO)C(O)C1NS(=O)(=O)c1ccccc1 (stereo unspecified) in this assay?
*A* inactive

*Q* Could you please tell me the result logged for CCC(/C(=N\Nc1c(Cl)cc(Cl)cc1Cl)c1ccccc1)n1ccnc1C (stereo unspecified) in this assay?
*A* inactive

----------
Test system: SN12C
PROTOCOL: NCI tumour cell line growth inhibition, 48 h
Activity calls are given as the source filed them. Rule as the data show it: active = GI50 up to about 1.1 µM and inactive = higher.
OBSERVABLE: GI50

> print(dat)
                                   molecule               result
1         C=CCC(CCC(C)=O)(C(=O)OCC)C(=O)OCC  > 100 µM (inactive)
2  CC1=CC23C(COC(=O)C24CO4)C(C(=O)O)=CC3C1C (configuration not stated)   3.32 µM (inactive)

Record GI50 for all entries; do not skip any.
1. N#Cc1ccc(C2ON=C(c3ccccc3)N2C23CC4CC(CC(C4)C2)C3)cc1 (configuration not stated)
2. CN(C)CC1CC/C(=C\c2ccc3c(c2)OCO3)C1=O (configuration not stated)

*A*
1: > 10 µM (inactive); 2: 7.89 µM (inactive)

Record GI50 for all entries; do not skip any.
1. O=C1CC(c2ccc(O)cc2)C2(O1)C(=O)OC(C(O)CO)C2O (configuration not stated)
2. O=C(/C=C/c1ccccc1)CCN1CCN(CCC(=O)/C=C/c2ccccc2)CC1
3. COc1c(C)c(C/C=C(\C)CCCCO[Si](C(C)C)(C(C)C)C(C)C)c(OC)c2ccccc12
4. COC(=O)[C@]1(C)CCC[C@@]2(C)C1CC[C@@]13C=C(C(C)C)[C@@H](CC1=O)CC23 (some centres not stated)
5. CCOC(=O)NC(=O)c1c[nH]c(=O)[nH]c1=O
6. CCOC(=O)C1(C)CCC(C(C(=O)O)C(=O)O)CC1=O (configuration not stated)
7. O=C(O)Cc1cccc2c(=O)c3ccccc3oc12

*A*
> 100 µM (inactive)
10.1 µM (inactive)
> 100 µM (inactive)
19.8 µM (inactive)
> 100 µM (inactive)
> 100 µM (inactive)
> 100 µM (inactive)

----------
Provide the recorded GI50 for the entries that follow.
Tested on: NCI-H226
PROTOCOL: NCI tumour cell line growth inhibition, 48 h
Active and inactive are the calls of the source. No stated cut-off is given here; in the data, active = GI50 up to about 1.1 µM and inactive = higher.

Here is how some molecules turned out for GI50.
MOLECULE	TESTED_TARGET	RESULT
COc1ccc(C(=O)O[C@@H]2CCN3CC[C@H](C)[C@H]23)cc1	NCI-H226	> 100 µM (inactive)
Cc1cn(C2CC(OP(=O)(O)OCC3OC(n4c[n+]([BH2-]C#N)c5c(=O)[nH]c(N)nc54)CC3O)C(CO)O2)c(=O)[nH]c1=O (stereo unspecified)	NCI-H226	> 100 µM (inactive)
CCCCN(CCCC)c1c([N+](=O)[O-])c(=O)nc2ccccn12	NCI-H226	75.3 µM (inactive)
CCCCC(C)(C/C=C/[C@@H]1[C@@H](C(O)CCCCCC(=O)OC)C(=O)C[C@H]1O[Si](C)(C)C(C)(C)C)O[Si](C)(C)C (stereo partly specified)	NCI-H226	> 100 µM (inactive)
CCCC1NC(C#N)(C#N)C(CCC)NC1(C#N)C#N (stereo unspecified)	NCI-H226	22.1 µM (inactive)
O=C1C=CC(=O)C(CNc2ccc(C(=O)OCc3ccccc3)cc2)=C1	NCI-H226	12.3 µM (inactive)

Record GI50 for all entries; do not skip any.
1. CCc1ccccc1/N=N/C(=O)NNc1ccccc1CC
2. Cc1cc([N+](=O)[O-])ccc1Sc1c2ccccc2nc2ccccc12
3. CCC1OC2C(CC=C(C)C)=C3OC(C)(O)C(C)(CC)C(O)C3=C3OC(=O)C=C1C32 (stereo unspecified)
4. COc1ccc(/C=N/n2cnc3c(sc(=S)n3-c3ccccc3)c2=O)cc1
5. CCOC(=O)c1sc2nc(SC)nc3c2c1NCN3c1ccccc1Cl
6. Nc1ncnc2c1ncn2C1OC(CO)C(O)C1NS(=O)(=O)c1ccccc1 (stereo unspecified)

*A*
1. 17.5 µM (inactive)
2. > 100 µM (inactive)
3. 55.1 µM (inactive)
4. 18.3 µM (inactive)
5. > 100 µM (inactive)
6. > 100 µM (inactive)

Record GI50 for all entries; do not skip any.
1. COc1ccc(N(CC(=O)O)N=O)cc1
2. OC(C/C=N/Nc1ccccc1)(C(F)(F)Cl)C(F)(F)Cl
3. COC(=O)c1c2cccccc-2c(Cc2c3cccccc-3c(C(=O)OC)c2O)c1O

*A*
1. > 100 µM (inactive)
2. 7.38 µM (inactive)
3. > 100 µM (inactive)
